Listing of recorded pIC50 by entry.
System: HepG2
run.description: Cytotoxicity against human HepG2 cells by MTT assay
Type: functional, cell-based
pIC50: −log10 of the molar value.

- C=C1[C@H](O)[C@@]2(C(=O)N1OC)/C(=C\CC)C=CC(=O)[C@H]2O: < 4.30

// next entry
Memo: "CC/C=C1/C=CC(=O)[C@@H](O)[C@]12C(=O)N(OC)[C@@](C)(OC)[C@@H]2O" , reported pIC50: < 4.30

* * *

Test system: Influenza A virus H3N2
run.description: Antiviral activity against Influenza A virus (A/Aichi/2/68(H3N2)) infected in MDCK cells assessed as reduction in virus-induced cytopathic effect by MTT assay
Format: functional, organism-based
experimental.conditions: A/Aichi/2/1968(H3N2)
measurement.type: IC50

Record "CC/C=C1/C=CC(=O)[C@@H](O)[C@]12C(=O)N(OC)[C@@](C)(OC)[C@@H]2O" . Reported IC50: 4.1 µM
